Values compiled from the supplement of paper PMC10065799.

# test.target: c-Src SH2;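 note: peptide library displayed on the E. coli surface as eCPX fusions, selected cells deep-sequenced, score is each peptide's frequency after selection divided by its frequency in the input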
# protocol.description: SH2 binding enrichment of the phosphorylated peptide, bacterial display (enrichment ratio); higher = better substrate or ligand; peptides without Tyr show the background
Readings of SH2 binding enrichment for the listed sequences

>  <ordered.residues>
LITLVYGCSRQ [TMPRSS6_Y290_S288L]

>  <measure>
SH2 binding enrichment

>  <value.measured>
0.54

$$$$
>  <ordered.residues>
KMKGEYFRFLA [YWHAG_Y130_D129E_YF]

>  <measure>
SH2 binding enrichment

>  <value.measured>
1.24

$$$$
>  <ordered.residues>
IFLENYNAGTF [CFI_Y421_H418L_YF]

>  <measure>
SH2 binding enrichment

>  <value.measured>
0.527

$$$$

Challenge: Bench note: what SH2 binding enrichment did ATARPYRPFII [LRP5_Y1528_YF] show?
Response given: 0.861

Challenge: How about WRPFGYPHRRR [BCS1L_Y181_R183H] ?
Response given: 0.478

Challenge: How about ELCSEYRKSRK [SPINK5_Y440] ?
Response given: 0.484

Challenge: How about NKVKFYIPFMN [NCR1_Y84_D87Y_YF] ?
Response given: 1.57
